Please respond with reported half-life for every item in the list.
Assay type: in vivo, human (healthy subjects)
Conditions: human, plasma, oral

CCOc1ccc(Cc2cc([C@]34OC[C@](CO)(O3)[C@@H](O)[C@H](O)[C@H]4O)ccc2Cl)cc1 :: 11.2 to 13.8 h

Output measured half-life for this item: N[C@@H](CC(=O)N1CCn2c(nnc2C(F)(F)F)C1)Cc1cc(F)c(F)cc1F
11.2 to 12.5 h
